This listing pairs compounds with measured IC50.
# System: HCT-116
# experiment-summary: Cytotoxicity against human HCT116 cells deficient in p53 incubated for 72 hrs by MTS assay
# study-conditions: HCT-116, 72 h
Write down the numeric answer in µM and omit the unit.

Worked cases, IC50 given:
[
  {
    "compound": "COc1ccc(/C=C/c2nc(NCCCN(C)C)c3ccccc3n2)cc1",
    "test-system": "HCT-116",
    "IC50, µM": 26.3
  },
  {
    "compound": "COc1cccc2c1C(=O)c1c(O)c3c(c(O)c1C2=O)C[C@@](O)(C(=O)CO)C[C@@H]3O[C@H]1C[C@H](N)[C@H](O)[C@H](C)O1 [DOXORUBICIN]",
    "test-system": "HCT-116",
    "IC50, µM": 0.38
  }
]

Field request: IC50 | item: Oc1ccc(/C=C/c2ccc3cccc(O)c3n2)cc1
16.6

# get_value(readout='IC50', item= O=c1[nH]cc(F)c(=O)[nH]1 [FLUOROURACIL] )
4.69

# input compound: CC(=O)Oc1ccccc1/C=C/c1ccc2cccc(O)c2n1 ; wanted: its IC50
13.5

###

# System: PANC-1
# experiment-summary: Cytotoxicity against human PANC1 cells harboring mutant TP53 gene incubated for 72 hrs by MTS assay
# Format: functional, cell-based
# study-conditions: PANC-1, 72 h, read-out: IC50
observed-property: IC50

Endpoint output: IC50 of COc1ccc(/C=C/c2nc(NCCCN(C)C)c3ccccc3n2)cc1 . Value?
> 25 µM

###

# System: HCT-116
# experiment-summary: Anticancer activity against human HCT116 cells deficient in p53 assessed as inhibition of cell proliferation
# Assay type: functional, cell-based
observed-property: IC50

I would be grateful if you could share the reported IC50 for Oc1cccc2ccc(/C=C/c3ccccc3F)nc12 .
8.4 µM
